Each item that follows carries a reported PBM binding z-score.
- Tested on: RARg:RXRa (NR concentration 270 nM, RXRa partner concentration 90 nM)
- assay details: PBM binding z-score (relative to random genomic background probes); higher = stronger binding; sequences stand for … in GC…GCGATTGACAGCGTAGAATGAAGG
Lab note: write the figure by itself, no unit.

These solved cases illustrate the format of a correct answer.
>  <monomer sequence>
GCTGCTAGGTCAGGGTGGTCAGCTAACGGGTACG

>  <PBM binding z-score>
2.91

$$$$
>  <monomer sequence>
GCAGACAGGTGAAACGCAGGTGACTCAGGGTGGC

>  <PBM binding z-score>
1.85

$$$$
>  <monomer sequence>
CCGACTGCGGCAAAGGTTACCATACTCAGTACGA

>  <PBM binding z-score>
1.43

$$$$
>  <monomer sequence>
TCAGACAGGTGAAGGTAACTCCGGTACGCAGTCG

>  <PBM binding z-score>
0.458

$$$$

Ask: Give the measured PBM binding z-score of "AGAACGAGGGCACGCTGAGTTTATAGCAGAGTAG" .
Reply: 2.31

Ask: Do the same for "CGTCCAAGGTCAGAGAGGTCAGTTAATGCCGAGT" please
Reply: 6.43

* * *

- Test system: RARb:RXRa (NR concentration 270 nM, RXRa partner concentration 90 nM)
- assay details: PBM binding z-score (relative to random genomic background probes); higher = stronger binding; sequences stand for … in GC…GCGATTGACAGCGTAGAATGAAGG
Item-by-item account of PBM binding z-score

>  <monomer sequence>
CCTTACGGGTCTCTGACAGGTTATAGCATTTGGA

>  <PBM binding z-score>
0.256

$$$$
>  <monomer sequence>
TGTCAAAGTTCAAAGATAACGTAAGTATCCACAC

>  <PBM binding z-score>
4.92

$$$$
>  <monomer sequence>
CCGACTGGGGTAAAGGTTACCATACTCAGTACGA

>  <PBM binding z-score>
2.02

$$$$
>  <monomer sequence>
CAAACTAGGTCAAAGGTCATAGTCGAGCCAACCA

>  <PBM binding z-score>
5.59

$$$$
>  <monomer sequence>
TCTTGTAGATCAAGCAGGTTAAGCAAGCCTGAGT

>  <PBM binding z-score>
0.278

$$$$

Ask: Name the reported PBM binding z-score value associated with the sequence "TTACCAAAGTGAGCTGAGGTCGTTGATCCAACTC"
Reply: 0.34

Ask: What do you have for "GGAACGAGGGCATTTGAGTTGATAGCATGGCGAT" ?
Reply: 1.96

Ask: For "GATACAGGGTCAAGGCCAGATTACGCGTATTGAT" then?
Reply: 4.65

Ask: Record: "CGTGCAAGGTCAAAGGTCAGTGAAGAGATGACGG"
Reply: 5.91

Ask: What about this sequence? "GCAGACAGGTGAAACGTAGGTAACTCAGGGTGGC"
Reply: 0.76

Ask: Likewise for "CCAGACAGGCGAAAGGTAACTCAGTCTGGTACGC" ?
Reply: -0.0959

Ask: Next entry: "TCTTGTGGATCAATAGAGGTTAAGAAAGTGCGCT"
Reply: 0.915

* * *

Overview of reported PBM binding z-score across a group of sequences:
- System: PPARg DBDmut:RXRa IVT, anti-PPARg (DBD mutation: PPARg1 K132A/R137A, NR concentration 270 nM, RXRa partner concentration 90 nM)
- assay details: PBM binding z-score (relative to random genomic background probes); higher = stronger binding; sequences stand for … in GC…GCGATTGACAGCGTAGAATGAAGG
# answer = number (no unit)

>  <monomer sequence>
GCTGCTAGGTCAACTGATGTTCAGCTAAAGCTCG

>  <PBM binding z-score>
-0.364

$$$$
>  <monomer sequence>
CCTTACGGGTCACTGACAGGTTAGAGCATTTGGA

>  <PBM binding z-score>
0.322

$$$$
>  <monomer sequence>
CTACCAAGCTGAACAAGGTCGTTGATTACTATTC

>  <PBM binding z-score>
0.163

$$$$
>  <monomer sequence>
TCTTGTAGATTAAGCAGGTTAAGAAAGCCTGAGT

>  <PBM binding z-score>
0.0777

$$$$
>  <monomer sequence>
CCTCGGAGGACAGAAGGTAAGAGCTGTCCGCTTT

>  <PBM binding z-score>
-1.58

$$$$
>  <monomer sequence>
TGAATGAAGTTATAAGATCAGGGAACGTTGCAAA

>  <PBM binding z-score>
0.559

$$$$
>  <monomer sequence>
GATACAGGGTCAAGGCCGGAGTACGCGTATTGAT

>  <PBM binding z-score>
-0.0401

$$$$
>  <monomer sequence>
CGAACTTGGTCAAGGACAGTGAATCTCCGCACGC

>  <PBM binding z-score>
-0.557

$$$$

Shifting focus to the sequence that follows.
Ask: Would you mind telling me what PBM binding z-score value was observed for "TCATATAGGTAAACAGGTGTAAGTCCGTAAGTTA" ?
Reply: 1.63
